# subjectOfTest: T1, Extracellular domain of cyno PD1 (cPD1-ECD) (Macaca fascicularis (cynomolgus))
# T1 construct: Expressed with a hexahistidine tag or as Fc fusion; also called cynoPD1-ECD; cynoPD-1-ECD
# T1 chain: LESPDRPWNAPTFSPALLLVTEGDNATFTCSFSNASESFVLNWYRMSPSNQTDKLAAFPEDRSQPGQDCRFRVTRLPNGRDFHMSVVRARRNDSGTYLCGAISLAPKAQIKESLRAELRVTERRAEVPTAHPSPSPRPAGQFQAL
# assayName: SPR ProteOn, captured mAb, cynoPD1-ECD analyte;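 note: ProteOn XPR36 SPR with antibodies held by anti-IgG Fc on a GLC chip, on-rate, off-rate and KD derived from a Langmuir one-to-one fit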
Examples of binders with documented log10(koff) follow.
assayEndpoint: log10(koff) (log10 of the value in s⁻¹)

* PD1B177 (antibody, V domains shown, Tested as IgG2sigma; also called PD1H164/PH9L3) VH: QVQLVQSGAEVKKPGSSVKVSCKASGGTFSDYVISWVRQAPGQGLEWMGGIIPIYGTANYAQKFQGRVTITADESTSTAYMELSSLRSEDTAVYYCARGTLDRTGHLDYWGQGTLVTVSS VL: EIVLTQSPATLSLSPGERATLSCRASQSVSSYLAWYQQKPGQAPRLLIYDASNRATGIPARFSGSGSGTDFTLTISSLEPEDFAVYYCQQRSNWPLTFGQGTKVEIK | -2.72
* PD1B185 (antibody, human IgG2, kappa, V domains shown, IgG2sigma/kappa; VH 43, VL 55; also called PD1H3/PD1L132) VH: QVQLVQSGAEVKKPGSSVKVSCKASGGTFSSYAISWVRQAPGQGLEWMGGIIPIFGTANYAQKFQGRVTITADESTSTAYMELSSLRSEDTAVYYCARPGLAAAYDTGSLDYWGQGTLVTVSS VL: EIVLTQSPATLSLSPGERATLSCRASQSVRNYLAWYQQKPGQAPRLLIYDASDRATGIPARFSGSGSGTDFTLTISSLEPEDFAVYYCQQRWNWPLTFGQGTKVEIKR | -2.02
* PD1B164 (antibody, human IgG2, kappa, V domains shown, IgG2sigma/kappa; VH 42, VL 53; also called PD1H131/PD1L71) VH: QVQLVQSGAEVKKPGSSVKVSCKASGGTFSSYAISWVRQAPGQGLEWMGGIIPIFDTANYAQKFQGRVTITADESTSTAYMELSSLRSEDTAVYYCARPGLAAAYDTGNLDYWGQGTLVTVSS VL: EIVLTQSPATLSLSPGERATLSCRASQSVRSYLAWYQQKPGQAPRLLIYDASYRATGIPARFSGSGSGTDFTLTISSLEPEDFAVYYCQQRDYWPLTFGQGTKVEIKR | -3.54
* PD1B192 (antibody, human IgG2, kappa, V domains shown, IgG2sigma/kappa; VH 43, VL 57; also called PD1H3/PD1L133) VH: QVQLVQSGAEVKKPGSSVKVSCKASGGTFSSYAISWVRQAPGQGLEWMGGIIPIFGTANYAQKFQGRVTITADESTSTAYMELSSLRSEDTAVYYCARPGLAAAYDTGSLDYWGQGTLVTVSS VL: EIVLTQSPATLSLSPGERATLSCRASQSVDSYLAWYQQKPGQAPRLLIHDASNRATGIPARFSGSGSGTDFTLTISSLEPEDFAVYYCQQRNYWPLTFGQGTKVEIKR | -2.30
* PD1B183 (antibody, human IgG2, kappa, V domains shown, IgG2sigma/kappa; VH 43, VL 54; also called PD1H3/PD1L109) VH: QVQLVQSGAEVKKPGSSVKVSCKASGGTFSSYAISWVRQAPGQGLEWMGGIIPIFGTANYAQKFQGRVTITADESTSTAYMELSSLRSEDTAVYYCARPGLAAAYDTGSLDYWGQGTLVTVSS VL: EIVLTQSPATLSLSPGERATLSCRASQSVSSYLAWYQQKPGQAPRLLIKDASNRATGIPARFSGSGSGTDFTLTISSLEPEDFAVYYCQQRGYWPLTFGQGTKVEIKR | -2.08

Entry source: patent US20210277110A1
